Each recorded value in this set is attributed to the NIST ThermoML archive (doi:10.1016/j.jct.2011.04.018).

# assayText: activity coefficient (dimensionless); of the first substance listed, at infinite dilution; xn = mol fraction of the nth substance listed
# conditionContext: 358.15 K; 101 kPa; Liquid; Chromatography; x1 = 0
recordedEndpoint: activity coefficient
The response must contain the number and no unit.

The cases that follow already have their activity coefficient on record.
molecule="C=CCCCC [hex-1-ene] + O=S(=O)([N-]S(=O)(=O)C(F)(F)F)C(F)(F)F.OCCC[n+]1ccccc1" recordedendpoint="activity coefficient" reading=16.4
molecule="CCCCO [butan-1-ol] + O=S(=O)([N-]S(=O)(=O)C(F)(F)F)C(F)(F)F.OCCC[n+]1ccccc1" recordedendpoint="activity coefficient" reading=1.82
molecule="Cc1cccc(C)c1 [1,3-dimethylbenzene] + O=S(=O)([N-]S(=O)(=O)C(F)(F)F)C(F)(F)F.OCCC[n+]1ccccc1" recordedendpoint="activity coefficient" reading=3.6

Then there is this molecule:
For the molecule C1CCCCCC1 [cycloheptane] + O=S(=O)([N-]S(=O)(=O)C(F)(F)F)C(F)(F)F.OCCC[n+]1ccccc1 , report activity coefficient.
22.9

* * *

Reported activity coefficient values for a set of molecules
# assayText: activity coefficient (dimensionless); of the first substance listed, at infinite dilution; xn = mol fraction of the nth substance listed
# conditionContext: 368.15 K; 101 kPa; Liquid; Chromatography; x1 = 0
The response must contain the number and no unit.

molecule="CCCCCCC [heptane] + O=S(=O)([N-]S(=O)(=O)C(F)(F)F)C(F)(F)F.OCCC[n+]1ccccc1" reading=45.8
molecule="CC(C)=O [acetone] + O=S(=O)([N-]S(=O)(=O)C(F)(F)F)C(F)(F)F.OCCC[n+]1ccccc1" reading=0.484
molecule="Cc1ccccc1C [1,2-dimethylbenzene] + O=S(=O)([N-]S(=O)(=O)C(F)(F)F)C(F)(F)F.OCCC[n+]1ccccc1" reading=3.15
molecule="C=CCCCCCCCC [1-decene] + O=S(=O)([N-]S(=O)(=O)C(F)(F)F)C(F)(F)F.OCCC[n+]1ccccc1" reading=79.7
molecule="C#CCCCCC [1-heptyne] + O=S(=O)([N-]S(=O)(=O)C(F)(F)F)C(F)(F)F.OCCC[n+]1ccccc1" reading=8.55

For the molecule CCCO [propan-1-ol] + O=S(=O)([N-]S(=O)(=O)C(F)(F)F)C(F)(F)F.OCCC[n+]1ccccc1 , report activity coefficient.
1.28

For the molecule CC1CCCCC1 [methylcyclohexane] + O=S(=O)([N-]S(=O)(=O)C(F)(F)F)C(F)(F)F.OCCC[n+]1ccccc1 , report activity coefficient.
22.9

For the molecule C1CCCCCCC1 [cyclooctane] + O=S(=O)([N-]S(=O)(=O)C(F)(F)F)C(F)(F)F.OCCC[n+]1ccccc1 , report activity coefficient.
28.6

For the molecule c1ccccc1 [benzene] + O=S(=O)([N-]S(=O)(=O)C(F)(F)F)C(F)(F)F.OCCC[n+]1ccccc1 , report activity coefficient.
1.62

For the molecule C1CCCCCC1 [cycloheptane] + O=S(=O)([N-]S(=O)(=O)C(F)(F)F)C(F)(F)F.OCCC[n+]1ccccc1 , report activity coefficient.
21.2

* * *

Reported activity coefficient values for a set of compounds
# assayText: activity coefficient (dimensionless); of the first substance listed, at infinite dilution; xn = mol fraction of the nth substance listed
# conditionContext: 358.15 K; 101 kPa; Liquid; Chromatography; x1 = 0

For the compound C1=CCCCC1 [cyclohexene] + O=S(=O)([N-]S(=O)(=O)C(F)(F)F)C(F)(F)F.OCCC[n+]1ccccc1 , report activity coefficient.
8.92

For the compound CCC(C)(C)C [2,2-dimethylbutane] + O=S(=O)([N-]S(=O)(=O)C(F)(F)F)C(F)(F)F.OCCC[n+]1ccccc1 , report activity coefficient.
26.3

For the compound CCCOCCC [dipropyl ether] + O=S(=O)([N-]S(=O)(=O)C(F)(F)F)C(F)(F)F.OCCC[n+]1ccccc1 , report activity coefficient.
8.87

For the compound CCCCCCCCC [nonane] + O=S(=O)([N-]S(=O)(=O)C(F)(F)F)C(F)(F)F.OCCC[n+]1ccccc1 , report activity coefficient.
111
